Kindly state R^1 Plasma (relaxivity) for each of the entries shown.
- assayProcedure: proton relaxivity in plasma (R^1), Minispec P 20
- Type: physicochemical
- assaySetup: 40° C., 0.47 tesla, bovine plasma
Just so you know, I need the unit written after the number.

What does the record list as R^1 Plasma (relaxivity) for CC(C(=O)NCC(=O)NCCCC[C@H](NC(=O)CNC(=O)C(C)N1CCN(CC(=O)[O-])CCN(CC(=O)[O-])CCN(CC(=O)[O-])CC1)C(=O)N1CCN(S(=O)(=O)C(F)(F)C(F)(F)C(F)(F)C(F)(F)C(F)(F)C(F)(F)C(F)(F)C(F)(F)F)CC1)N1CCN(CC(=O)[O-])CCN(CC(=O)[O-])CCN(CC(=O)[O-])CC1.[Gd+3].[Gd+3] (stereo partly shown) [metal complex XVI] ?
21.3 mmol⁻¹ s⁻¹

What does the record list as R^1 Plasma (relaxivity) for O=C([O-])CN1CCN(CC(=O)[O-])CCN(CC(O)CNC(=O)CN(Cc2ccccc2)S(=O)(=O)C(F)(F)C(F)(F)C(F)(F)C(F)(F)C(F)(F)C(F)(F)C(F)(F)C(F)(F)F)CCN(CC(=O)[O-])CC1.[Gd+3] (stereo not shown) [metal complex XIII] ?
34.0 mmol⁻¹ s⁻¹

What does the record list as R^1 Plasma (relaxivity) for CC(C(=O)NCC(=O)NCCCC[C@H](NC(=O)CO[C@H]1O[C@H](CO)[C@@H](O)[C@H](O)[C@@H]1O)C(=O)N1CCN(S(=O)(=O)C(F)(F)C(F)(F)C(F)(F)C(F)(F)C(F)(F)C(F)(F)C(F)(F)C(F)(F)F)CC1)N1CCN(CC(=O)[O-])CCN(CC(=O)[O-])CCN(CC(=O)[O-])CC1.[Gd+3] (stereo partly shown) [metal complex XV] ?
15.9 mmol⁻¹ s⁻¹

What does the record list as R^1 Plasma (relaxivity) for COCCOCCOCCOCCOCCN(CCOCCC(F)(F)C(F)(F)C(F)(F)C(F)(F)C(F)(F)C(F)(F)C(F)(F)C(F)(F)F)C(=O)CNC(=O)C(C)N1CCN(CC(=O)[O-])CCN(CC(=O)[O-])CCN(CC(=O)[O-])CC1.[Gd+3] (stereo not shown) [metal complex VII] ?
30.3 mmol⁻¹ s⁻¹

What does the record list as R^1 Plasma (relaxivity) for O=C([O-])CN1CCN(CC(=O)[O-])CCN(CC(O)CNC(=O)COCCC(F)(F)C(F)(F)C(F)(F)C(F)(F)C(F)(F)C(F)(F)C(F)(F)C(F)(F)C(F)(F)C(F)(F)F)CCN(CC(=O)[O-])CC1.[Gd+3] (stereo not shown) [metal complex XI] ?
24.8 mmol⁻¹ s⁻¹

What does the record list as R^1 Plasma (relaxivity) for CC(C(=O)NCC(=O)NCC(=O)N1CCN(C(=O)CNC(=O)CNC(=O)C(C)N2CCN(CC(=O)[O-])CCN(CC(=O)[O-])CCN(CC(=O)[O-])CC2)CCN(C(=O)COCCC(F)(F)C(F)(F)C(F)(F)C(F)(F)C(F)(F)C(F)(F)C(F)(F)C(F)(F)F)CCN(C(=O)CNC(=O)CNC(=O)C(C)N2CCN(CC(=O)[O-])CCN(CC(=O)[O-])CCN(CC(=O)[O-])CC2)CC1)N1CCN(CC(=O)[O-])CCN(CC(=O)[O-])CCN(CC(=O)[O-])CC1.[Gd+3].[Gd+3].[Gd+3] (stereo not shown) [metal complex XIV] ?
19.5 mmol⁻¹ s⁻¹

What does the record list as R^1 Plasma (relaxivity) for CC(C(=O)NCC(=O)N1CCN(S(=O)(=O)C(F)(F)C(F)(F)C(F)(F)C(F)(F)C(F)(F)C(F)(F)C(F)(F)C(F)(F)F)CC1)N1CCN(CC(=O)[O-])CCN(CC(=O)[O-])CCN(CC(=O)[O-])CC1.[Gd+3] (stereo not shown) [metal complex I] ?
35.7 mmol⁻¹ s⁻¹
